All figures here come from PubChem BioAssay (EPA / NIEHS).

Assay: ATG_AP_1_CIS: Attagene CIS-FACTORIAL HepG2 Assay for human Activator Protein 1 (AP-1) (AID 2282931)
Conditions: HepG2 Attagene cis-factorial AP-1 reporter mRNA; actives raise or lower the signal
The source made the active and inactive calls. The calls were made as follows: active = hit-call score of the fitted dose curve at least 0.9, where 1 is the maximum; inactive = score below 0.9.
Outcome (select one): active, inactive

Problem: Kindly provide the recorded test outcome for the following compound: O=C(O)C(F)(F)C(F)(F)OC(F)(F)F
Solution: inactive

Problem: Kindly provide the recorded test outcome for the following compound: CC(C)(C)C(=O)CC(=O)C(F)(F)C(F)(F)C(F)(F)F
Solution: inactive

Problem: Kindly provide the recorded test outcome for the following compound: C=CC(F)(F)C(F)(F)C(F)(F)C(F)(F)C(F)(F)C(F)(F)C(F)(F)C(F)(F)F
Solution: inactive

Problem: Kindly provide the recorded test outcome for the following compound: O=C(O)C(F)(F)C(F)(F)C(F)(F)C(F)(F)C(F)(F)C(F)(F)C(F)(F)C(F)(F)C(F)(F)C(F)(F)C(F)(F)C(F)(F)F
Solution: inactive

Problem: Kindly provide the recorded test outcome for the following compound: O=C(O)C(F)(F)C(F)(F)F
Solution: inactive

Problem: Kindly provide the recorded test outcome for the following compound: O=C(O)C(F)(F)C(F)(F)C(F)(F)C(F)(F)C(F)(F)C(F)(F)C(F)(F)C(F)(F)C(F)(F)C(F)(F)C(F)(F)C(F)(F)C(F)(F)F
Solution: active

Problem: Kindly provide the recorded test outcome for the following compound: O=P(O)(O)OCCC(F)(F)C(F)(F)C(F)(F)C(F)(F)C(F)(F)C(F)(F)F
Solution: inactive

Problem: Kindly provide the recorded test outcome for the following compound: C=C(C)C(=O)OCC(F)(F)C(F)(F)C(F)(F)C(F)(F)C(F)(F)C(F)(F)C(F)(F)F
Solution: inactive

Problem: Kindly provide the recorded test outcome for the following compound: FC1CC(F)(F)C(F)(F)C1(F)F (centres undefined)
Solution: inactive
